assay: chemical genetic growth profiling, strain panel (AID 1159580);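 note: tested at 20 µM; growth read once vehicle control cultures reached saturation at 30 °C; 1 = growth at the plate median or of vehicle wells; lower values mean less growth of the strain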; details: S. cerevisiae deletion strains, growth OD, locus YMR078C, strain ctf18, active compounds read low
The whole screen tested about 5,500 compounds, of which about 2,000 (36%) were called active. Inconclusive results (about 18%) are left out. Some of the results follow.
PARAMETER MEASURED: normalized growth

1. Cn1nnnc1SCC1=C(C(=O)O)N2C(=O)C(NC(=O)C(OC=O)c3ccccc3)C2SC1 (stereo not given); 1.02
2. CC1=C2[C@](C)(C=CC1=O)C[C@H](O)[C@H]1[C@H](C)C(=O)O[C@]21C; 1.04
3. Cc1ncc([N+](=O)[O-])n1CCO; 0.976
4. CC(=O)OC1CCC23C(=O)OC45CCC(C6=CC(=O)OC6)C4(C)CCC2C5CCC3(O)C1 (stereo not given); 1.01
5. CC1=C2CCC3C(CC[C@]4(C)C(=O)CCC34)[C@@]2(C)CCC1=O (stereo not given in full); 0.953

###

assay: chemical genetic growth profiling, strain panel (AID 1159580); conditions: S. cerevisiae deletion strains, growth OD, locus YKL085W, strain MDH1, active compounds read low
Out of some 5,500 compounds screened, about 2,000 (36%) were called active. Another 18% or so got no clear call; they are omitted. Some of the results follow.
PARAMETER MEASURED: normalized growth

1) CCC(=O)O[C@H]1CCC2C3CCc4cc(O)ccc4C3CC[C@@]21C (some centres not stated); 0.936 (inactive)
2) C[C@]12CCC3c4ccc(O)cc4CCC3C1CC[C@@H]2OC(=O)CCC1CCCC1 (some centres not stated); 0.998 (inactive)
3) CCCCCN=C(N)N/N=C\c1c[nH]c2ccc(OC)cc12; 0.956 (inactive)
4) CCCCC(=O)O[C@H]1CCC2C3CCc4cc(O)ccc4C3CC[C@@]21C (some centres not stated); 1.01 (inactive)
5) COc1cc2ccc(=O)oc2c(OC)c1OC; 1.01 (inactive)
6) CC(C)=CCOc1cc2oc(=O)ccc2cc1O; 0.959 (inactive)
7) COc1cc2ccc(=O)oc2cc1O; 0.995 (inactive)
8) CCNc1nc(Cl)nc(NC(C)C)n1; 1.02 (inactive)
9) C[C@H]1C(=O)O[C@@H]2CCN3CC=C(COC(=O)[C@](C)(O)[C@]1(C)O)[C@H]23; 1.04 (inactive)
10) CC(C)=CCOc1c2occc2cc2ccc(=O)oc12; 0.898 (active)
11) O=c1ccc2cc(O[C@@H]3O[C@H](CO)[C@@H](O)[C@H](O)[C@H]3O)c(O)cc2o1; 0.996 (inactive)
12) CN1CCN(C(c2ccccc2)c2ccccc2)CC1; 0.973 (inactive)

###

test: chemical genetic growth profiling, strain panel (AID 1159580);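 note: tested at 20 µM; growth read once vehicle control cultures reached saturation at 30 °C; 1 = growth at the plate median or of vehicle wells; lower values mean less growth of the strain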; conditions: S. cerevisiae deletion strains, growth OD, locus YLL001W, strain dnm1, active compounds read low
Screen size: about 5,500 compounds; about 2,000 (36%) were called active. Another 18% or so got no clear call; they are omitted. The list shows a part of the results.
PARAMETER MEASURED: normalized growth

1) CC(=O)OCC(=O)[C@@]1(O)CCC2C3CCC4=CC(=O)CC[C@]4(C)[C@@]3(F)[C@@H](O)C[C@@]21C (stereo partly drawn); 1.03
2) O=c1[nH]cnc2nc[nH]c12; 1.01
3) CN(C)c1nc(N(C)C)nc(N(C)C)n1; 0.969
4) CCS(=O)(=O)CCn1c([N+](=O)[O-])cnc1C; 0.993
5) O=C1c2ccccc2C(=O)c2c(O)c(O)cc(O)c21; 0.39
6) O=c1ccc2ccc(O)c(O)c2o1; 0.996
7) Cc1cc(O)c2c(c1O)C(=O)c1c(O)cc(C)c(O)c1C2=O; 0.966
8) O=C1c2ccccc2C(=O)c2c1ccc(O)c2O; 0.492

###

normalized growth by entry:
test: chemical genetic growth profiling, strain panel (AID 1159580);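 note: tested at 20 µM; growth read once vehicle control cultures reached saturation at 30 °C; 1 = growth at the plate median or of vehicle wells; lower values mean less growth of the strain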; conditions: S. cerevisiae deletion strains, growth OD, locus YEL061C, strain CIN8, active compounds read low
The campaign covered roughly 5,500 compounds. About 2,000 (36%) were called active. Roughly 18% stayed inconclusive and do not appear here. Some of the results follow.
PARAMETER MEASURED: normalized growth

1. CCNc1nc(Cl)nc(NC(C)C)n1; 1.01
2. Cn1c(=O)[nH]c(=O)c2[nH]cnc21; 0.994
3. O=[N+]([O-])c1ccc(C2N(Cc3ccccc3)CCC3CCCCN32)cc1 (stereo not given); 0.983
4. O=C(Oc1ccc(F)cc1)c1cccs1; 1
5. COc1ccccc1N=C1SCC(=O)N1Cc1ccco1; 0.989

###

experiment: chemical genetic growth profiling, strain panel (AID 1159580);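 note: tested at 20 µM; growth read once vehicle control cultures reached saturation at 30 °C; 1 = growth at the plate median or of vehicle wells; lower values mean less growth of the strain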; conditions: S. cerevisiae deletion strains, growth OD, locus YPL240C, strain hsp82, active compounds read low
The whole screen tested about 5,500 compounds, of which about 2,000 (36%) were called active. Roughly 18% stayed inconclusive and do not appear here. This is one part of the list.
normalized growth by entry:
PARAMETER MEASURED: normalized growth

1. CC(=O)c1ccc2c(c1)N(CCCN(C)C)c1ccccc1S2; 0.997
2. COc1ccc(Cc2nccc3cc(OC)c(OC)cc23)cc1OC; 1.01
3. COc1cc2ccc(=O)oc2c2ccoc12; 0.965
4. COc1cc2c(cc1-c1coc3c4c(c(OC)cc3c1=O)OC(C)(C)C=C4)OCO2; 1.04
5. O=C(/C=C/C(=O)Oc1ccccc1C(=O)O)Oc1ccccc1C(=O)O; 0.968
6. COc1ccc2c(=O)c(CC(=O)O)coc2c1; 0.974
7. CC1(C)C=Cc2c(cc3occ(-c4ccc5c(c4)OCO5)c(=O)c3c2O)O1; 0.989
8. CCCCCN=C(N)N/N=C\c1c[nH]c2ccc(OC)cc12; 1
9. CCOc1nc2cccc(C(=O)OC(C)OC(=O)OC3CCCCC3)c2n1Cc1ccc(-c2ccccc2-c2nn[nH]n2)cc1 (centres undefined); 1.01
10. CC1(C)S[C@@H]2[C@H](NC(=O)COc3ccccc3)C(=O)N2[C@H]1C(=O)O; 1
11. CN1CCN(CCCN2c3ccccc3Sc3ccc(Cl)cc32)CC1; 0.983
12. O=c1c(-c2ccc3c(c2)OCO3)coc2cc(O)ccc12; 0.988
13. Cn1c(=O)[nH]c(=O)c2[nH]cnc21; 1.02
14. COc1ccc2c(=O)c(-c3cc4c(cc3OC)OCO4)coc2c1; 0.995
15. C=C1CC2C(CCC3(C)C(=O)CCC23)C2(C)C=CC(=O)C=C12 (centres undefined); 0.969
16. CC(C)CCCC(C)[C@H]1CCC2C3CC[C@H]4CC(=O)CC[C@]4(C)C3CC[C@@]21C (some centres undefined); 0.987
17. O=C(O)c1cccc(O)c1O; 1.03
18. CC(C)=CCc1c(O)cc2occ(-c3ccc4c(c3)OCO4)c(=O)c2c1O; 0.974
19. O=c1n(CCCN2CCN(c3cccc(Cl)c3)CC2)nc2ccccn12; 0.984
20. COc1c(O)cc(O)cc1O; 1
21. O=c1ccc2ccc(O)c(O)c2o1; 1.01
22. N#C/C(=C\c1ccc(O)cc1)C(=O)O; 0.986
23. C=C(C)c1cc2cc(C(C)=O)c(O)cc2o1; 0.961
24. CCCc1nc(C(C)(C)O)c(C(=O)OCc2oc(=O)oc2C)n1Cc1ccc(-c2ccccc2-c2nn[nH]n2)cc1; 0.974
25. COc1cc(O)c(C)c(O)c1; 1.02
26. CCCCC(=O)N(Cc1ccc(-c2ccccc2-c2nn[nH]n2)cc1)[C@H](C(=O)O)C(C)C; 1
27. C[C@]12C=CC(=O)C=C1CCC1C2CC[C@]2(C)C(=O)CCC12 (some centres undefined); 0.965
28. CC(C)(O)CC[C@@H](O)[C@](C)(O)C1CC[C@@]2(O)C3=CC(=O)C4C[C@@H](O)[C@@H](O)C[C@]4(C)C3CC[C@]12C (some centres undefined); 0.995
29. COc1cc(OC)c(C(C)=O)c(O)c1C; 0.94
30. OCCN1CCN(CCCN2c3ccccc3Sc3ccc(Cl)cc32)CC1; 0.995
31. CCS(=O)(=O)CCn1c([N+](=O)[O-])cnc1C; 0.991
32. CC(=O)OC1CCC23C(=O)OC45CCC(C6=CC(=O)OC6)C4(C)CCC2C5CCC3(O)C1 (centres undefined); 0.979
33. Cc1cc(O)c2c(c1O)C(=O)c1c(O)cc(C)c(O)c1C2=O; 0.98
34. CC(C)=CCC1=C(O)c2ccccc2C(=O)C1=O; 0.825
35. O=C1c2ccccc2C(=O)c2c(O)c(O)cc(O)c21; 0.497
36. CC1=C(C(=O)O)N2C(=O)[C@@H](NC(=O)[C@H](N)C3=CCC=CC3)C2SC1 (some centres undefined); 1.01
37. CSCCC(NC=O)C(=O)NC(CC(C)C)C(=O)NC(Cc1ccccc1)C(=O)O (centres undefined); 0.999
38. COc1cc(OC)c2c(=O)c(-c3ccc4c(c3)OCO4)coc2c1; 0.984
39. CC(C)=CCOc1c2occc2cc2ccc(=O)oc12; 0.912
40. COc1c2c(cc3occ(-c4ccc5c(c4)OCO5)c(=O)c13)OC(C)(C)C=C2; 0.997
41. CC(C)=CCC/C(C)=C/COc1ccc2ccc(=O)oc2c1; 0.992
42. OC[C@@H](O)C(O[C@@H]1O[C@H](CO)[C@H](O)[C@H](O)[C@H]1O)[C@H](O)[C@@H](O)CO (some centres undefined); 0.988
43. COc1ccc2ccc(=O)oc2c1CC=C(C)C; 0.96
44. CC(=O)OCC(=O)[C@@]1(O)CCC2C3CCC4=CC(=O)CC[C@]4(C)[C@@]3(F)[C@@H](O)C[C@@]21C (some centres undefined); 0.994
